Test Protocol: Phase solubility study with αCD
Assay type: physicochemical
Measurement Parameters: phase solubility, 0.1 M phosphate buffer (pH 2.1), 25 °C, mean ± SD (n = 3)
Assay Metric: Apparent stability constant K αCD (M⁻¹)

A. O=C(O)CCCCc1ccccc1 [PV, 5-phenylvaleric acid]
B. O=C(O)CCCCCCc1ccccc1 [PH, 7-phenylheptanoic acid]
C. O=C(O)CCCCCc1ccccc1 [PC, 6-phenylcaproic acid]
D. O=C(O)CCc1ccccc1 [PP, 3-phenylpropionic acid]
Req: Highest Apparent stability constant K αCD first, then in falling order down to the smallest. Kindly provide the labels arranged according to the requested ordering.
Resp: B, C, A, D
(B: 2500 M⁻¹, C: 1185 M⁻¹, A: 639 M⁻¹, D: 226 M⁻¹)

----------
Test Protocol: Phase solubility study with γCD
Format: physicochemical
Measurement Parameters: 0.1 M phosphate buffer (pH 2.1), 25 °C, mean ± SD (n = 3)
Assay Metric: Apparent stability constant K γCD (M⁻¹)

[
  {
    "Smi": "O=C(O)CCCCCCc1ccccc1",
    "Apparent stability constant K γCD (M⁻¹)": 1213
  }
]

P. O=C(O)CCCCc1ccccc1
Q. O=C(O)CCCCCc1ccccc1
R. O=C(O)CCc1ccccc1
Req: Put the entries in order of Apparent stability constant K γCD, starting with the largest number. Form entry: labels listed in requested order.
Resp: Q, P, R
(Q: 499 M⁻¹, P: 223 M⁻¹, R: 34 M⁻¹)

----------
Test Protocol: Phase solubility study with βCD
Type: physicochemical
Measurement Parameters: 0.1 M phosphate buffer (pH 2.1), 25 °C, mean ± SD (n = 3)
Assay Metric: Apparent stability constant K βCD (M⁻¹)

[
  {
    "Smi": "O=C(O)CCCCCCc1ccccc1",
    "Assay Metric": "Apparent stability constant K βCD",
    "Unit Abbreviation": "M⁻¹",
    "Reported Value": 7458
  }
]

1. O=C(O)CCCCc1ccccc1
2. O=C(O)CCc1ccccc1
3. O=C(O)CCCCCc1ccccc1
Req: Order these by Apparent stability constant K βCD, descending, and give the full ranking. Lab note: record answer as labels in requested order.
Resp: 3, 1, 2
(3: 2283 M⁻¹, 1: 838 M⁻¹, 2: 74 M⁻¹)

----------
Test Protocol: Phase solubility study with αCD
Type: physicochemical
Measurement Parameters: 0.1 M phosphate buffer (pH 2.1), 25 °C
Assay Metric: Phase solubility diagram type with αCD

[
  {
    "Smi": "O=C(O)CCc1ccccc1",
    "Assay Metric": "Phase solubility diagram type with αCD",
    "Reported Value": "AL-type"
  },
  {
    "Smi": "O=C(O)CCCCc1ccccc1",
    "Assay Metric": "Phase solubility diagram type with αCD",
    "Reported Value": "AL-type"
  },
  {
    "Smi": "O=C(O)CCCCCc1ccccc1",
    "Assay Metric": "Phase solubility diagram type with αCD",
    "Reported Value": "BS-type"
  },
  {
    "Smi": "O=C(O)CCCCCCc1ccccc1",
    "Assay Metric": "Phase solubility diagram type with αCD",
    "Reported Value": "BS-type"
  }
]
